test: Phase 1 single ascending dose (SAD) clinical trial: pharmacokinetics, safety and tolerability; type: in vivo, human; conditions: both sexes, human, plasma; 150 mg single oral dose, after high-fat breakfast; CTP-656 aqueous suspension, Kalydeco tablet; read-out: C24 hr, mean

| MOLECULE | concentration at 24 h / ng/mL |
| --- | --- |
| [2H]C([2H])([2H])C(c1cc(C(C)(C)C)c(NC(=O)c2c[nH]c3ccccc3c2=O)cc1O)(C([2H])([2H])[2H])C([2H])([2H])[2H] | 712 |
| CC(C)(C)c1cc(C(C)(C)C)c(NC(=O)c2c[nH]c3ccccc3c2=O)cc1O [ivacaftor, reference compound] | 169 |
